Experiment: Toxicity liver stage against HepG2, at 10uM
Format: cell-based
Design: test concentration 10 uM, cell line HepG2-A16-CD81EGFP
Conditions: human, HepG2-A16-CD81EGFP cells; read-out: INHIBITION
Readout type: cytotoxicity at 10 µM (%)

> print(dat)
                                    compound  units.label  recorded.measurement
 1  CCC(=O)N1CCN(C(=O)Nc2ccc(Cl)cc2)[C@H]2CS(=O)(=O)C[C@H]21            %                 -43.9
 2          Cc1cnn(CCNCc2csc(-c3ncccn3)n2)c1            %                 -7.48
 3  O=C(O)CSc1nnc(-c2cn[nH]c2)n1-c1ccccc1C(F)(F)F            %                   1.2
 4          CCc1nnc(CN(CC)C(=O)CCc2scnc2C)o1            %                  7.22
 5  COc1ccc([C@@H](C)n2ccnc2-c2cc3n(n2)CCCNC3)cc1            %                 -8.48
 6  O=C(NC1CCCN(CCCc2ccccc2)C1)c1ccc(Cl)s1 (centres undefined)            %                  57.5
 7  CN(C)C(=O)CN1CCC2(CCCN(Cc3cccn3C)C2)C1=O (centres undefined)            %                  11.3
 8            CCN(Cc1cccc(C(N)=O)c1)c1ccccc1            %                  2.91
 9  Cc1c[nH]c(CN2CC[C@@]3(O)CCN(C(=O)C4CCC4)C[C@H]3C2)n1            %                  1.27
10             Cn1ncnc1-c1ccnc(NCc2ccncc2)n1            %                 -3.89
11  O=C(c1ccc(-n2cnnc2)nc1)N1CCCC(O)(CO)CC1 (centres undefined)            %                -0.274
12       COc1ccccc1CCN(C)Cc1nc(N)nc(N(C)C)n1            %                  6.96
13  Cc1nc(CN2CCCC(Nc3ncnc4c3CCC4)C2)no1 (centres undefined)            %                  34.3
14  CS(=O)(=O)c1ccc2c(c1)N(C(=O)Cc1cccc(F)c1)CCC2            %                  14.9
15                    O=C(COc1ccccc1)NCC1CC1            %                  7.76
16     CCN1CCNC(=O)C12CCN(C(=O)Cc1ccccn1)CC2            %                  4.71
17            Cc1ncsc1CNc1cccc(OCCN2CCCC2)c1            %                 -3.35
18  O=C(CCNc1ncccn1)N1CCCC(n2ccnc2)C1 (centres undefined)            %                 0.289
19      CNC(=O)NC(=O)CN1CCN(CC2CC2)c2ccccc21            %                  10.4
20   CCOc1ccc(Cl)c(C(=O)NCCC(=O)Nc2ccncc2)n1            %                 -13.9
21  CC(NC(=O)NCC1(N2CCCCC2)CCCCC1)c1nncn1C (centres undefined)            %                 -9.78
22  CCn1ncc(CNC(=O)c2cn(CCC3CCCCN3)nn2)c1C (centres undefined)            %                  2.72
23   NC(=O)NCCC(=O)NCc1nn(-c2ccccc2)c2c1CCC2            %                 -9.83
24  O=C(CC1CC1)NC1CCc2c(ccc(=O)n2CC2CC2)C1 (centres undefined)            %                  6.34

* * *

Below, each entry is listed with its recorded cytotoxicity at 10 µM.
Test: Toxicity liver stage against HepG2, at 10uM
Assay type: cell-based
Design: test concentration 10 uM, cell line HepG2-A16-CD81EGFP
Settings: human, HepG2-A16-CD81EGFP cells; read-out: INHIBITION
Readout type: cytotoxicity at 10 µM (%)

> print(dat)
                                    molecule           readout.type  units.label  recorded.measurement
 1  Cc1ccc2c(c1)C(=O)NCC1(CCN(C(=O)c3sccc3C)CC1)O2  cytotoxicity at 10 µM            %                 -11.7
 2    N#Cc1cc(C#N)c(SCC(=O)Nc2ccc(F)cc2)nc1N  cytotoxicity at 10 µM            %                -0.506
 3    Cc1ncsc1C(=O)NC1CCN(Cc2ccc(C#N)cc2)CC1  cytotoxicity at 10 µM            %                 -6.46
 4           O=C(CCOc1ccc(Cl)cc1)NCCCn1cccn1  cytotoxicity at 10 µM            %                 -12.1
 5  O=C(CC1CCC2(CC1)CCN(Cc1ccncc1)CC2)N1CCCC1  cytotoxicity at 10 µM            %                  6.72
 6  O=C1[C@@H]2CN(c3ncccc3Cl)C[C@]2(C(=O)O)CN1CC1CC1  cytotoxicity at 10 µM            %                  1.04
 7  CCN1CCC2(CN(C(=O)N(C)C)CC23CCNCC3)C1=O (centres undefined)  cytotoxicity at 10 µM            %                  4.29
 8  COCC1CN(C(=O)CC2Cc3ccccc3C2)Cc2c1cnn2C (centres undefined)  cytotoxicity at 10 µM            %                 -75.4
 9     COc1ccccc1C(=O)N1CCC(Nc2ccc(C)nn2)CC1  cytotoxicity at 10 µM            %                 -4.05
10  NC(=O)Cn1ccnc1C1CCCN(Cc2nc3ccccc3s2)C1 (centres undefined)  cytotoxicity at 10 µM            %                   -17
11                  CNc1nccc(-c2cn(C)nc2C)n1  cytotoxicity at 10 µM            %                 -6.59
12  COCCC1(CO)CCCN(C(=O)c2cc(=O)[nH]c(=O)[nH]2)C1 (centres undefined)  cytotoxicity at 10 µM            %                 -5.16
13  c1cc(CO[C@@H]2CC[C@H]3[C@H]2OCCN3Cc2ccoc2)ccn1  cytotoxicity at 10 µM            %                  10.8
14  CC1CCc2nc(O)c(C(=O)NCCN(C)C)cc2C1 (centres undefined)  cytotoxicity at 10 µM            %                 -13.8
15  COc1ccc(F)cc1C(=O)N1C[C@@H]2CC[C@H]1CN(c1ncccn1)C2  cytotoxicity at 10 µM            %                  4.24
16   CCc1nnc2n1CCN(Cc1cc(Cl)c3c(c1)OCCCO3)C2  cytotoxicity at 10 µM            %                 -5.83
17  CNc1cc(C2CCCN2S(=O)(=O)c2cccc(F)c2)ccn1 (centres undefined)  cytotoxicity at 10 µM            %                 -22.7
18  COCCN1CCN(c2ccc3ccc(C(=O)NC4CC4)cn23)CC1  cytotoxicity at 10 µM            %                 -4.37
19  c1ccc2sc(N3CCCC4(CCOC4)C3)nc2c1 (centres undefined)  cytotoxicity at 10 µM            %                 -5.08
20  O=C(c1cnc2[nH]c(=O)[nH]c(=O)c2c1)N1CCCC1C1CCCC1 (centres undefined)  cytotoxicity at 10 µM            %                  6.22
21  CC(C)c1ncc2c(n1)CN(Cc1cccc(C(N)=O)c1)CC2  cytotoxicity at 10 µM            %                 -9.17
22  Cc1cnn(C2CCCN(C(=O)Cc3ccc(C#N)cc3)C2)c1 (centres undefined)  cytotoxicity at 10 µM            %                 -8.45
23          Cc1nc(CNC(=O)NCc2cccnc2N(C)C)cs1  cytotoxicity at 10 µM            %                 -2.15
24                COCCN(CCOC)c1ncc(C#N)cc1Cl  cytotoxicity at 10 µM            %                   2.8
